List of Emax values.
# system-name: KCNQ2/3 channels (Homo sapiens, UniProt O43525+O43526)
# Construct: expressed in transfected cells
# Sequence (O43526 whole entry): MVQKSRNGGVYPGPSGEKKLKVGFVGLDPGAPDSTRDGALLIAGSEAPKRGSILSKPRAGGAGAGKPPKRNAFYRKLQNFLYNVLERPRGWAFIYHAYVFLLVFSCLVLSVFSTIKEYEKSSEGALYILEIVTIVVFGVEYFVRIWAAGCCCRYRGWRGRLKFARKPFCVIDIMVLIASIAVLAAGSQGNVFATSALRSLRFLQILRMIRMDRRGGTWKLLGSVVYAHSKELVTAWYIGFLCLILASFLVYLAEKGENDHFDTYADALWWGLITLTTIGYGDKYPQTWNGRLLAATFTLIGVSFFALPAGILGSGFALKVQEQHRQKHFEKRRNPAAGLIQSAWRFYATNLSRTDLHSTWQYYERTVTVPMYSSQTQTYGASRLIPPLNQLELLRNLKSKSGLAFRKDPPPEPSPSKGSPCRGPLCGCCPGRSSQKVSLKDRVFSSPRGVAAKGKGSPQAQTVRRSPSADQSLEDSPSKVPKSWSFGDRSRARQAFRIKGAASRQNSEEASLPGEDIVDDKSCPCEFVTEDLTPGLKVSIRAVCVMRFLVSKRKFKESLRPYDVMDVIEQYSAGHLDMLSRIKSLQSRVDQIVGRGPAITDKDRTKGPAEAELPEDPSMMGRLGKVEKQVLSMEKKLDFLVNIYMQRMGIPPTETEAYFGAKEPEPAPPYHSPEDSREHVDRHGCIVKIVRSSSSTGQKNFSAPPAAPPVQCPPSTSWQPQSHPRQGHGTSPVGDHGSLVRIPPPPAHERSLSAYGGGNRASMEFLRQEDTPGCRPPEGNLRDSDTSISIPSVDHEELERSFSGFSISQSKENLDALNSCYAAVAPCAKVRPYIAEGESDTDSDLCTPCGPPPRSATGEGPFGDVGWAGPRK
# Sequence (O43525 whole entry): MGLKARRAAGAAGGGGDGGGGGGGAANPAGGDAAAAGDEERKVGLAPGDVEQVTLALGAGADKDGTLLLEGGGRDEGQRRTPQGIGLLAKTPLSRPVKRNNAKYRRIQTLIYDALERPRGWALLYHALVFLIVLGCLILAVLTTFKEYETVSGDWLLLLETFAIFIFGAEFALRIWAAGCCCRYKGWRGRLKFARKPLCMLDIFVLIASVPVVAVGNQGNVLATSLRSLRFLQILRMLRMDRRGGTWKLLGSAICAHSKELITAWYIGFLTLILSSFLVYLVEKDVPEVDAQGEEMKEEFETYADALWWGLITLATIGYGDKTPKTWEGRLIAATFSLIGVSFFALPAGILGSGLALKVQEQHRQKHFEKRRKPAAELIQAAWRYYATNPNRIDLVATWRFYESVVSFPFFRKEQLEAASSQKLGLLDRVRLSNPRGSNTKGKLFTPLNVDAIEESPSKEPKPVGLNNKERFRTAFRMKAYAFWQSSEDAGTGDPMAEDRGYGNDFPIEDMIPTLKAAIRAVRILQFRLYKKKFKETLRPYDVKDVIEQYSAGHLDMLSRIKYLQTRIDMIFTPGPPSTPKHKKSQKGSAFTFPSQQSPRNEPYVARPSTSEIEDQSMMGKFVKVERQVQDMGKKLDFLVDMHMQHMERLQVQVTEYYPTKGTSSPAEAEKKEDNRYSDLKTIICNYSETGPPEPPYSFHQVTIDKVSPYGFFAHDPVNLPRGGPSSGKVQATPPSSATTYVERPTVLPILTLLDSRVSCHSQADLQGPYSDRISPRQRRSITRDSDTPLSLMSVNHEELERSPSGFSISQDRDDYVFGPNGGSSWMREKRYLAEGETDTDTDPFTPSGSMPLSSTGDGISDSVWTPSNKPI
# test-details: Fluorescence assay using a voltage sensitive dye (fluorimetry)
# Assay type: cell-based
# test-conditions: CHO-K1, plateau effect relative to saturated retigabine (50 μM) = 100%; CHO-K1 cells expressing KCNQ2/3; negative values = antagonistic; read-out: Fluorimetry % efficacy (retigabine = 100%)
# value in %; strip the unit string

# compound, Emax (%)
measured = [
    ("CCCc1nc(N2CCOC[C@H]2C)cc(C)c1C(=O)NCCCC(C)(C)C", 232),
    ("CCSc1nc(N2CCOCC2)cc(C)c1C(=O)NCCCc1ccc(F)cc1", 203),
    ("CCSc1nc(N2C(C)COCC2C)cc(C)c1C(=O)NCc1cccc(F)c1 (stereo not drawn)", 182),
]

Lab request: please report Emax under test system KCNQ2/3 channels (Homo sapiens, UniProt O43525+O43526) for CCSc1nc(N2CC(OC)C2)cc(C)c1C(=O)NCc1cccc(F)c1
140

Now this one: CCSc1nc(N2CCOC[C@H]2COC)cc(C)c1C(=O)NCc1cccc(F)c1
190

Now this one: CCSc1nc(N2CCOCC2)cc(C)c1C(=O)NCc1ccc(OC(F)F)cc1
138

Now this one: CCSc1nc(N2CCOCC2)cc(C)c1C(=O)NCc1cccc(F)c1F
98

Now this one: CCSc1nc(N2CCOCC2)cc(C)c1C(=O)NCc1cc(F)ccc1F
100

Now this one: CCSc1nc(N2CCOCC2)cc(C)c1C(=O)NCc1cccc(C(F)(F)F)c1F
111

Now this one: CCSc1nc(N2CCc3cc(C(F)(F)F)ccc3C2)cc(C)c1C(=O)NCc1cccc(F)c1
132

Now this one: CCSc1nc(N2CCN(CC(F)(F)F)CC2)cc(C)c1C(=O)NCc1cccc(F)c1
97

* * *

# system-name: KCNQ2/3 channels (Homo sapiens, UniProt O43525+O43526)
# Construct: expressed in transfected cells
# test-details: Fluorescence assay using a voltage sensitive dye (fluorimetry)
# Format: cell-based
# test-conditions: CHO-K1, plateau effect relative to saturated retigabine (50 μM) = 100%; CHO-K1 cells expressing KCNQ2/3; negative values = antagonistic; read-out: Fluorimetry % efficacy (retigabine = 100%)
The label depends only on Emax: yes if it is at least 200%, no if it is smaller.

Has Cc1cc(N2CCOCC2)nc(C(C)C)c1C(=O)NCc1cccc(F)c1 a recorded Emax greater than or equal to 200%?
no

Now this one: CSc1nc(N2CCOCC2)cc(C)c1C(=O)NCCCC(C)(C)C
yes

Now this one: CCSc1nc(N(C)CC(C)=O)cc(C)c1C(=O)NCc1cccc(F)c1
no

Now this one: CCSc1nc(N2CCOCC2)cc(C)c1C(=O)NCc1ccc(N(C)C)cc1
no

Now this one: CCCSc1nc(N2CCOCC2)cc(C)c1C(=O)NCc1cccc(F)c1
no

Now this one: Cc1cc(N2CCOCC2)nc(C(C)C)c1C(=O)NCCCC(C)(C)C
yes

Now this one: COc1nc(N2CCOC[C@H]2C)cc(C)c1C(=O)NCCCC(C)(C)C
yes

Now this one: Cc1cc(N2CCOCC2)nc(OCC(F)F)c1C(=O)NCc1ccc(Cl)cc1
no

Now this one: CCSc1nc(N2CCOCC2)cc(C)c1C(=O)NCc1ccccc1C(F)(F)F
no

* * *

# system-name: KCNQ2/3 channels (Homo sapiens, UniProt O43525+O43526)
# Construct: expressed in transfected cells
# test-details: Fluorescence assay using a voltage sensitive dye (fluorimetry)
# Type: cell-based
# test-conditions: CHO-K1, plateau effect relative to saturated retigabine (50 μM) = 100%; CHO-K1 cells expressing KCNQ2/3; negative values = antagonistic; read-out: Fluorimetry % efficacy (retigabine = 100%)
List of Emax values.
# value in %; strip the unit string

Given the compound CCOc1nc(N2CCOC[C@H]2C)cc(C)c1C(=O)NCc1ccc(F)cc1 , what is its reported Emax?
146

Now this one: CCC(C)c1nc(N2CCOCC2)cc(C)c1C(=O)NCc1ccc(Cl)cc1 (stereo not drawn)
156

Now this one: COCc1cc(CNC(=O)c2c(C)cc(N3CCOCC3)nc2C2CC2)ccc1F
118

Now this one: CCSc1nc(N2CCOCC2)cc(C)c1C(=O)NCc1ccc(OC(F)(F)F)cc1
136

Now this one: CCCc1nc(N2CCOCC2)cc(C)c1C(=O)NCc1ccc(C(F)(F)F)cc1
130

Now this one: CCSc1nc(N(C)c2ccccn2)cc(C)c1C(=O)NCc1cccc(F)c1
84

Now this one: CCSc1nc(N(C)C)cc(C)c1C(=O)NCc1cccc(F)c1
110

Now this one: CCSc1nc(N2CCC(=O)CC2)cc(C)c1C(=O)NCc1cccc(F)c1
149

Now this one: CCSc1nc(N2CCOC[C@H]2COC)cc(C)c1C(=O)NCc1ccc(F)cc1
223

* * *

# system-name: KCNQ2/3 channels (Homo sapiens, UniProt O43525+O43526)
# Construct: expressed in transfected cells
# test-details: Fluorescence assay using a voltage sensitive dye (fluorimetry)
# Type: cell-based
# test-conditions: CHO-K1, plateau effect relative to saturated retigabine (50 μM) = 100%; CHO-K1 cells expressing KCNQ2/3; negative values = antagonistic; read-out: Fluorimetry % efficacy (retigabine = 100%)
List of Emax values.
# value in %; strip the unit string

# smiles-structure, system-name, Emax [%]
rows = [
    ("CCCc1nc(N2CCOC[C@H]2C)cc(C)c1C(=O)NCc1ccc(Cl)cc1", "KCNQ2/3 channels (Homo sapiens, UniProt O43525+O43526)", 210),
    ("CCCCSc1nc(N2CCOCC2)cc(C)c1C(=O)NCc1cccc(F)c1", "KCNQ2/3 channels (Homo sapiens, UniProt O43525+O43526)", 169),
    ("CCSc1nc(N2CC(COC)C2)cc(C)c1C(=O)NCc1cccc(F)c1", "KCNQ2/3 channels (Homo sapiens, UniProt O43525+O43526)", 125),
    ("Cc1cc(N2CCOCC2)nc(OCCF)c1C(=O)NCc1ccc(Cl)cc1", "KCNQ2/3 channels (Homo sapiens, UniProt O43525+O43526)", 119),
]

Attention now shifts to the item below.
Given the molecule COC[C@@H]1CN(c2cc(C)c(C(=O)NCc3ccc(Cl)cc3)c(C3CC3)n2)CCO1 , what is its reported Emax?
136

* * *

List of pEC50 values.
# system-name: KCNQ2/3 channels (Homo sapiens, UniProt O43525+O43526)
# Construct: expressed in transfected cells
# test-details: Fluorescence assay using a voltage sensitive dye (fluorimetry)
# Assay type: cell-based
# test-conditions: CHO-K1 cells expressing KCNQ2/3; IC50 where % efficacy is negative; read-out: Fluorimetry EC50/IC50
pEC50 here is simply -log10 of the concentration when that concentration is written in mol/L.

# molecule, result-type, reported-measurement
measured = [
    ("CCSc1nc(N2CCOCC2)cc(C)c1C(=O)NCc1ccc(C)cc1", "pEC50", 6.44),
    ("CCSc1nc(N2CCOCC2=O)cc(C)c1C(=O)NCc1cccc(F)c1", "pEC50", 5.17),
    ("CCC(C)Cc1nc(N2CCOCC2)cc(C)c1C(=O)NCCCC(C)(C)C (centres unmarked)", "pEC50", 7.44),
    ("CCSc1nc(N2CCOCC2)cc(C)c1C(=O)NCCC1CCCCO1 (centres unmarked)", "pEC50", 5.13),
]

Given the molecule Cc1cc(N2CCOCC2)nc(OC2COC2)c1C(=O)NCc1cccc(F)c1 , what is its reported pEC50?
5.95

* * *

# system-name: KCNQ2/3 channels (Homo sapiens, UniProt O43525+O43526)
# Construct: expressed in transfected cells
# test-details: Fluorescence assay using a voltage sensitive dye (fluorimetry)
# Type: cell-based
# test-conditions: CHO-K1, plateau effect relative to saturated retigabine (50 μM) = 100%; CHO-K1 cells expressing KCNQ2/3; negative values = antagonistic; read-out: Fluorimetry % efficacy (retigabine = 100%)
List of Emax values.
# value in %; strip the unit string

# compound, system-name, unit-tag, Emax
data = [
    ("CCSc1nc(N2CCc3ccccc3C2)cc(C)c1C(=O)NCc1cccc(F)c1 [Example 26]", "KCNQ2/3 channels (Homo sapiens, UniProt O43525+O43526)", "%", 155),
]

Given the compound CCSc1nc(N2CCOCC2)cc(C)c1C(=O)NCc1ccc(S(C)(=O)=O)cc1 [Example 247] , what is its reported Emax?
38

Now this one: CCSc1nc(N2CCNC(=O)C2)cc(C)c1C(=O)NCc1cccc(F)c1 [Example 143]
28

Now this one: CCSc1nc(N(C)CC2CCCO2)cc(C)c1C(=O)NCc1cccc(F)c1 (stereo not drawn) [Example 294]
129

Now this one: CCSc1nc(N2CCOC[C@@H]2COC)cc(C)c1C(=O)NCc1cccc(F)c1 [Example 180]
123

Now this one: CCSc1nc(N2CCOCC2)cc(COC)c1C(=O)NCc1cccc(F)c1 [Example 346]
157

Now this one: Cc1cc(N2CCOCC2)nc(C(C)(C)C)c1C(=O)NCCCC(C)(C)C [Example 220]
166

Now this one: CC(C)c1cc(N2CCOCC2)nc(C(C)C)c1C(=O)NCc1ccc(Cl)cc1 [Example 357]
17

Now this one: CCSc1nc(N2CCOC[C@H]2C)cc(C)c1C(=O)NCc1ccc(C(F)(F)F)cc1 [Example 237]
148
